assayedTarget: CD73 enzymatic activity expressed on the cell surface of MDA-MB-231 cells (Homo sapiens)
Construct: Human breast cancer cells MDA-MB-231 that endogenously express CD73 were used; host or cells: MDA-MB-231
Sequence (P21589 27-549): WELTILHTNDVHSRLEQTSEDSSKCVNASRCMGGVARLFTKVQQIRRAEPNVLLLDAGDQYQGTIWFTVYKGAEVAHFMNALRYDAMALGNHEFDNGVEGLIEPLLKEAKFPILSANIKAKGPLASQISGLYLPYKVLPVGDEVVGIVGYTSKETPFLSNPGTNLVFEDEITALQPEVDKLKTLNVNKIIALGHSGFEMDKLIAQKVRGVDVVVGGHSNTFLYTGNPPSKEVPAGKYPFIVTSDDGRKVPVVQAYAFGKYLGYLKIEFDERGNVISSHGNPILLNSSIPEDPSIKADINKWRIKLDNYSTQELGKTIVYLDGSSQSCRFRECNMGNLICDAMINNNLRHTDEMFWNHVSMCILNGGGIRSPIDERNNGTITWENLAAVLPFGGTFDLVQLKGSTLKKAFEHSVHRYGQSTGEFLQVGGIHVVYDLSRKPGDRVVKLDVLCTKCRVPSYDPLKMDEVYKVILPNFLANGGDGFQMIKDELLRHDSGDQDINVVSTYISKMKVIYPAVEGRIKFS
assaySummary: Inhibition of CD73 enzymatic activity on the cell surface (Cell Titer Glo (CTG) experiment), MDA-MB-231 cells
Format: cell-based
conditionSummary: MDA-MB-231 cells endogenously expressing CD73, AMP, 37° C. for 2 hours, CTG readout; read-out: Cellular activity IC50
pIC50: −log10 of the molar value.

molecule | pIC50
O=P(O)(O)CP(=O)(O)OC[C@H]1C[C@@H](c2ccc3c(N[C@@H]4CCc5cc(F)cc(F)c54)nc(Cl)nn23)[C@H](O)[C@@H]1O [Example 34] | 9.66
O=P(O)(O)CP(=O)(O)OC[C@H]1O[C@@H](n2ncc3c(N[C@H]4CCc5ccccc54)cc(Cl)nc32)[C@H](O)[C@@H]1O [Example 12] | 9.59
O=P(O)(O)CP(=O)(O)OC[C@H]1C[C@@H](c2ccc3c(N[C@@H]4CCc5ccccc54)nc(Cl)nn23)[C@H](O)[C@@H]1O [Example 25] | 9.26
O=P(O)(O)CP(=O)(O)OC[C@H]1C[C@@H](c2ccc3c(N[C@H]4CCc5cc(F)c(F)cc54)nc(Cl)nn23)[C@H](O)[C@@H]1O [Example 31] | 9.02
C[C@@H](Nc1nc(Cl)nc2c1cnn2[C@@H]1O[C@H](COP(=O)(O)CP(=O)(O)O)[C@@H](O)[C@H]1O)c1ccc(S(F)(F)(F)(F)F)cc1 [Example 1] | 9.43
O=P(O)(O)CP(=O)(O)OC[C@H]1C[C@@H](c2ccc3c(N[C@@H]4CCc5ccc(F)cc54)nc(Cl)nn23)[C@H](O)[C@@H]1O [Example 30] | 9.72
CN(c1cc(Cl)nc2c1cnn2[C@@H]1O[C@H](COP(=O)(O)CP(=O)(O)O)[C@@H](O)[C@H]1O)[C@@H]1CCc2ccccc21 [Example 15] | 9.92
O=P(O)(O)CP(=O)(O)OC[C@H]1C[C@@H](c2ccc3c(N[C@@H]4CCc5ccc(C(F)(F)F)cc54)nc(Cl)nn23)[C@H](O)[C@@H]1O [Example 36] | 9.20
O=P(O)(O)CP(=O)(O)OC[C@H]1O[C@@H](n2ncc3c(N[C@@H]4CCc5cc(C(F)(F)F)ccc54)cc(Cl)nc32)[C@H](O)[C@@H]1O [Example 19] | 9.27
O=P(O)(O)CP(=O)(O)OC[C@H]1C[C@@H](c2ccc3c(N[C@@H]4CCc5cc(F)c(F)cc54)nc(Cl)nn23)[C@H](O)[C@@H]1O [Example 32] | 9.57
C[C@H](Nc1nc(Cl)nc2c1cnn2[C@@H]1O[C@H](COP(=O)(O)CP(=O)(O)O)[C@@H](O)[C@H]1O)c1ccc(S(F)(F)(F)(F)F)cc1 [Example 2] | 9.14
CN(c1cc(Cl)nc2c1cnn2[C@@H]1O[C@H](COP(=O)(O)CP(=O)(O)O)[C@@H](O)[C@H]1O)[C@H]1CCc2ccccc21 [Example 14] | 9.35
